Test system: NCI-H460 lung
experiment notes: NCI tumour cell line growth inhibition, 48 h
observed property: TGI (µM)
Please reply with the bare figure in µM and do not write the unit itself.

Answered examples (3):
- compound: "CN(C)CC/C(=N\\Nc1ccc(Cl)cc1Cl)c1ccccc1"
  quantitative result: 28.3
- compound: "C=C1C(=O)O[C@H]2[C@H]1CC/C(COC(=O)NCc1ccc(Cn3c(=O)sn(-c4ccccc4)c3=O)cc1)=C\\CC[C@@]1(C)O[C@@H]21"
  quantitative result: 12.4
- compound: "CCCCCCCCCCCCCCCC1=NC(C)(C)CN1C(C)C"
  quantitative result: 3.11

Measured TGI, `CC(=O)[O-].O=C([CH-]C(=O)c1ccccc1)c1ccccc1.O=C([CH-]C(=O)c1ccccc1)c1ccccc1.[Sm+3]` : 82.6
